Experiment: In vivo pharmacokinetics in rats
Set-up: species or system rat
Settings: male, Sprague-Dawley, plasma; Rat, PO, 10 mg kg^-1; read-out: Vss/F
assay.metric: Vd/F (L/kg)
Lab book: enter the figure in L/kg, no units written.

Lab note: measured Vd/F of Cc1n[nH]c2ncc(C#Cc3cncc(C(=O)Nc4ccc(CN5CCN(C)CC5)c(C(F)(F)F)c4)c3)cc12 [HSND19] was 45.1

---

Experiment: In vivo pharmacokinetics and brain distribution in mice
Details: male, CD1, mouse, brain and plasma, iv, 2 mg/kg, 2 mg kg^-1, read-out: brain exposure as % of total plasma exposure (AUCplasma)
assay.metric: Kp

Lab note: measured Kp of CN1CCN(Cc2ccc(NC(=O)c3cncc(C#Cc4cnc5cccnn45)c3)cc2C(F)(F)F)CC1 was ~0.42

---

Biological target: B/KR(G810S) cells, KIF5B-RET G810S (Homo sapiens, UniProt P07949+P33176, G810S)
Construct: FLAG
Sequence (P07949 713-1063 G810S limits assumed, one chain of several): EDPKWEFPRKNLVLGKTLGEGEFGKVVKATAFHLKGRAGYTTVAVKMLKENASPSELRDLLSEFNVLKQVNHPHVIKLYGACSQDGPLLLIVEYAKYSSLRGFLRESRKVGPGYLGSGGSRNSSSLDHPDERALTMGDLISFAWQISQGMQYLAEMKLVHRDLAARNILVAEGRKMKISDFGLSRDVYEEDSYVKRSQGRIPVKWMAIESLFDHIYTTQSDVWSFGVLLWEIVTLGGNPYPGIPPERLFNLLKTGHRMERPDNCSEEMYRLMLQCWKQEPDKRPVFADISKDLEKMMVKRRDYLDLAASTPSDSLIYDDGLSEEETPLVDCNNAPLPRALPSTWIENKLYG
Assay: Cell viability assay (CellTiter-Glo, 3 days) in B/KR(G810S) cells
Quick list: IC50 per entry.

Lab note: measured IC50 of CN1CCN(Cc2ccc(NC(=O)c3cncc(C#Cc4cnc5cccnn45)c3)cc2C(F)(F)F)CC1 was 13.9 nM

---

Quick list: pIC50 per entry.
Molecular target: B/KR(G810R) cells, KIF5B-RET G810R (Homo sapiens, UniProt P07949+P33176, G810R)
Construct: FLAG
Sequence (P07949 713-1063 G810R limits assumed, one chain of several): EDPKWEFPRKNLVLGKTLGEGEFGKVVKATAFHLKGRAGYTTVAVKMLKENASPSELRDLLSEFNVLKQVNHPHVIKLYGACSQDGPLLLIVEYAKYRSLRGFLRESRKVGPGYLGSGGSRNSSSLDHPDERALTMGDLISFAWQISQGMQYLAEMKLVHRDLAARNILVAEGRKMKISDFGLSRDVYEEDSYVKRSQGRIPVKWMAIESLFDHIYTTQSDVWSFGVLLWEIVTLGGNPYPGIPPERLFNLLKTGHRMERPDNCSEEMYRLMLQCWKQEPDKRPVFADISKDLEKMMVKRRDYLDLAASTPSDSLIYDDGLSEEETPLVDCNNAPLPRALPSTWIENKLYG
Assay: Cell viability assay (CellTiter-Glo, 3 days) in B/KR(G810R) cells
Please note pIC50 is a logarithmic value: minus log10 of concentration in mol/L. Answer with that number alone.

Example results:
Lab note: measured pIC50 of CCOc1ccc2ncc(C#Cc3cncc(C(=O)Nc4ccc(CN5CCN(C)CC5)c(C(F)(F)F)c4)c3)n2n1 [HSND14] was 7.48

Lab note: measured pIC50 of Cc1n[nH]c2ncc(C#Cc3cncc(C(=O)Nc4ccc(CN5CCN(C)CC5)c(C(F)(F)F)c4)c3)cc12 [HSND19] was 7.64

Lab note: measured pIC50 of COc1cc2cc(-c3ccc(CC(=O)Nc4cc(C(C)(C)C(F)(F)F)no4)cn3)cnc2cc1OC [Zeteletinib, reference compound] was 6.62

Kindly consider the entry below.
Lab note: measured pIC50 of CN1CCN(Cc2ccc(NC(=O)c3cncc(C#Cc4cnc5cccnn45)c3)cc2C(F)(F)F)CC1 [HSN748] was 7.69

---

Test: In vivo pharmacokinetics in rats
Set-up: species or system rat
Details: male, Sprague-Dawley, plasma; Rat, oral, across 20, 50 and 100 mg kg^-1; read-out: time of peak plasma concentrations postdose
assay.metric: Tmax

Lab note: measured Tmax of CN1CCN(Cc2ccc(NC(=O)c3cncc(C#Cc4cnc5cccnn45)c3)cc2C(F)(F)F)CC1 was 2 to 4 h

---

Test: In vivo pharmacokinetics in rats
Set-up: species or system rat
Conditions: male, SD, plasma; Rat, PO, 100 mg kg^-1; read-out: Tmax
assay.metric: Tmax (h)
Lab book: enter the figure in h, no units written.

Lab note: measured Tmax of CN1CCN(Cc2ccc(NC(=O)c3cncc(C#Cc4cnc5cccnn45)c3)cc2C(F)(F)F)CC1 was 2

---

Test: In vivo pharmacokinetics in rats
Parameters: species or system rat
Conditions: male, Sprague-Dawley, plasma; Rat, IV, 2 mg kg^-1; read-out: AUCplasma
assay.metric: AUC (ng·h/mL)
Lab book: enter the figure in ng·h/mL, no units written.

Lab note: measured AUC of Cc1n[nH]c2ncc(C#Cc3cncc(C(=O)Nc4ccc(CN5CCN(C)CC5)c(C(F)(F)F)c4)c3)cc12 was 1390
